Test system: VEEV TC83
Experiment: microbe, parasite or virus in culture
Assay type: cell-based
Details: Venezuelan equine encephalitis virus, Vero 76, 48 h, read-out: VEEV TC83 EC50 nM
MEASURED_ATTRIBUTE: EC50

COMPOUND	MEASURED_ATTRIBUTE	ASSAY_RESULT
COc1ccc(-n2c(C3CCCN3)nc3c(C#Cc4ccc(C)nc4)cc(C#N)cc3c2=O)cc1F (stereo not shown) [Example 194]	EC50	51 to 150 nM
COc1ccc(-n2c([C@H]3CCCN3)nc3cccc([N+](=O)[O-])c3c2=O)cc1 [Example 49]	EC50	> 1000 nM
COc1ccc(-n2c(C3CCCN3)nc3c(-c4ccc(-c5ccccc5)nc4)cc(C#N)cc3c2=O)cc1F (stereo not shown) [Example 133]	EC50	1 to 50 nM
COc1ccc(-n2c([C@H]3CCCN3)nc3c(-c4cccnc4)cc([N+](=O)[O-])cc3c2=O)cc1 [Example 85]	EC50	1 to 50 nM
Cc1ccc(-c2cc(C#N)cc3c(=O)n(-c4ccc(N5CCOCC5)c(F)c4)c(C4CCCN4)nc23)cn1 (stereo not shown) [Example 146]	EC50	151 to 500 nM
COc1ccc(-n2c([C@H]3CCCN3)nc3c(-c4ccnc(F)c4)cc([N+](=O)[O-])cc3c2=O)cc1F [Example 90]	EC50	1 to 50 nM
COc1c(F)cc(-n2c(C34CC(CN3)C4)nc3c(-c4ccc(C)nc4)cc(C#N)cc3c2=O)cc1F [Example 175]	EC50	1 to 50 nM
